molecular target: HIV-1 protease (Human immunodeficiency virus type 1 group M subtype B, UniProt P04585); assay: biochemical; conditions: read-out: HIV-1 Protease % Inhib, dose 3.300 uM
So basically: inhibition at 3.3 µM at 90% or higher? That is label 1. Lower than 90%? That is label 0.

>  <Compound>
CCS(=O)(=O)Nc1cccc(C(c2c(O)c3c(oc2=O)CCCCC3)C2CC2)c1 (centres unmarked) [Example 365]

>  <Cat>
label 0

$$$$
>  <Compound>
CC(C)CC1CCCCc2c1oc(=O)c(C(c1ccccc1)C1CC1)c2O (centres unmarked) [Example 183]

>  <Cat>
label 1

$$$$
>  <Compound>
Nc1cc(NS(=O)(=O)c2ccccc2)cc(C(c2c(O)c3c(oc2=O)CCCCCC3)C2CC2)c1 (centres unmarked) [Example 486]

>  <Cat>
label 1

$$$$
>  <Compound>
CCC(c1cccc(NS(=O)(=O)c2ccc(Cl)cc2)c1)c1c(O)c2c(oc1=O)CCCCCC2 (centres unmarked) [Example 221]

>  <Cat>
label 1

$$$$
